# experiment notes: Estimated maximum unbound hepatic inlet plasma concentrations of cannabinoids after oral or inhaled THC or CBD
# Parameters: species or system human
# experimental parameters: CBD 2000 mg oral; doses and Cmax from Bansal et al., 2022; read-out: Cmax,hepatic inlet,u
experimental endpoint: Cmax (nM)
# output: bare number, implied unit nM

Determine its reported Cmax: C=C(C)[C@@H]1CCC(CO)=C[C@H]1c1c(O)cc(CCCCC)cc1O [7-OH-CBD, 7-hydroxycannabidiol]
980

----------
# assayed target: UGT2B7 (Homo sapiens)
# Sequence (P16662 24-529): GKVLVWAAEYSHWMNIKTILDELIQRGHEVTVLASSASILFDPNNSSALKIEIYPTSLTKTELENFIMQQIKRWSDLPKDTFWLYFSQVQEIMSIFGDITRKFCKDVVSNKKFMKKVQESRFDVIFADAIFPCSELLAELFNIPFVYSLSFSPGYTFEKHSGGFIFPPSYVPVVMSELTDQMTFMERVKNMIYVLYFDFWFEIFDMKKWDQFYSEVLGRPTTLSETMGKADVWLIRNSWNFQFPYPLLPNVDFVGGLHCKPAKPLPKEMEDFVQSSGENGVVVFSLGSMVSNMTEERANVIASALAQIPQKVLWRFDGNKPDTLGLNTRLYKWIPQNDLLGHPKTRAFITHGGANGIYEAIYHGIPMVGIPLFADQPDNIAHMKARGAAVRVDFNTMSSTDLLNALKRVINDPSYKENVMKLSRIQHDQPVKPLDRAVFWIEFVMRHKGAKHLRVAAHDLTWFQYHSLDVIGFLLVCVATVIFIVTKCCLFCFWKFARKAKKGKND
# experiment notes: Inhibition of UGT2B7-mediated hydromorphone glucuronidation by cannabinoids in pooled HLM (screening, IC50, Ki, inhibition type)
# Format: biochemical
# experimental parameters: human, pooled human liver microsomes, probe hydromorphone 400 μM (HM3G formation)
experimental endpoint: inhibition at 100 μM (%)
# output: bare number, implied unit %

Determine its reported inhibition at 100 μM: C=C(C)[C@@H]1CCC(C)=C[C@H]1c1c(O)cc(CCCCC)cc1O [CBD, cannabidiol]
83
